test: Pharmacokinetics after single intravenous and oral administration to the mouse; details: plasma, iv, 1.3 mg/kg

molecule | half-life (h)
Cn1c(Sc2c(F)cc(C(=O)NO)cc2F)nnc1-c1cccs1 [comp. 17] | 1

###

Below, each of the molecules is paired with its reported residual percentage in rat plasma value.
assay: Stability in rat plasma; assay type: in vitro ADME; conditions: after 4 hours, 37° C.

smilesCode | residual percentage in rat plasma
O=C(NO)c1ccc(Cc2nnc(-c3ccccc3)[nH]2)cc1 | 89%
O=C(NO)c1ccc(Cc2nnc(-c3ccc(F)cc3F)o2)cc1 | 106%
O=C(NO)c1ccc(Cn2nnnc2-c2ccccc2)cc1 | 57%
O=C(NO)c1ccc(Cn2nnc(-c3ccco3)n2)cc1 | 87%
COc1ccc(Cc2nc(Cc3ccc(C(=O)NO)cc3)n(-c3ccc(C(F)(F)F)cc3)n2)cc1OC | 32%
COc1ccc(C2(c3nnc(Sc4c(F)cc(C(=O)NO)cc4F)n3C)CCCCC2)cc1 | 79%
Cn1c(Sc2c(F)cc(C(=O)NO)cc2F)nnc1-c1cccs1 | 87%
CCN(CC)S(=O)(=O)c1cccc(-c2nnc(Sc3ccc(C(=O)NO)cc3)n2N)c1 | 71%
Cn1c(Sc2c(F)cc(C(=O)NO)cc2F)nnc1C1(c2ccccc2)CCN(Cc2ccccc2)CC1 | 92%
CN(C)Cc1ccc(-c2nnc(Sc3c(F)cc(C(=O)NO)cc3F)n2C)o1 | 88%
Cc1cc(-c2nnc(Sc3ccc(C(=O)NO)cc3)n2C)nn1C | 76%
Cn1c(Sc2ccc(C(=O)NO)cc2)nnc1-c1cccs1 | 86%
O=C(NO)c1cc(F)c(Cn2nnc(-c3nccc4ccccc34)n2)c(F)c1 | 10%
O=C(NO)c1cc(F)c(Cn2nnc(-c3ccco3)n2)c(F)c1 | 96%
O=C(NO)c1cc(F)c(Cn2nnnc2-c2cccc(S(F)(F)(F)(F)F)c2)c(F)c1 | 10%
O=C(NO)c1cc(F)c(Cc2nnc(-c3ccncc3)s2)c(F)c1 | 84%
O=C(NO)c1cc(F)c(Sc2nnc(N3CCCC3)n2Cc2ccco2)c(F)c1 | 78%
O=C(NO)c1cc(F)c(Cn2nnc(-c3ncccn3)n2)c(F)c1 | 77%
O=C(NO)c1cc(F)c(Sc2nnc(-c3cncc(Br)c3)s2)c(F)c1 | 99%

The measurements presented in this section are drawn from patent US11351178B2.
